# Test system: SNRK
# Details: concentration: 1 μM, replicates: in singlicate; n = 1;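 further: KINOMEscan kinase panel screen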
Measured quantity: %Inh
Answer with the number, then the unit.

Compound structure string: Nc1nccc2scc(-c3ccc4c(c3)CCN4C(=O)Cc3ccccc3)c12
Data value: 3%
//
Compound structure string: FC(F)(F)c1ccc(-c2ncn(CCCN3CCOCC3)c2-c2ccncc2)cc1
Data value: 18%

Next item in the queue.
## Task Endpoint output: %Inh of `COc1ccc(-c2coc3ccc(-c4nnc(SCc5cccc(C#N)c5)o4)cc23)cc1` . Value?
## Result 18%

###

# System: CAMK2D
# Details: concentration: 1 μM, replicates: in singlicate; n = 1
Measured quantity: %Inh (%)
I only need the number, in %, no unit after it.

Use the examples below as a reference point.
Compound: Cc1cccc(-c2cc(-c3c[nH]nc3-c3ccccn3)ccn2)c1
%Inh [%]: 5
--
Compound: O=C(Nc1n[nH]c2nc(-c3ccccc3)c(Cl)cc12)C1CC1
%Inh [%]: 0
--
Compound: CCC(=O)c1c(-c2ccccc2)c2cc(Cl)ccc2c(=O)n1Cc1cc(S(C)(=O)=O)n(CC(F)F)n1
%Inh [%]: 0

## Task Endpoint output: %Inh of `COC(=O)c1c(-c2ccccc2)c2cc(C)ccc2c(=O)n1Cc1ccccc1` . Value?
## Result 0

## Task Proceed to `Cc1ccc(-c2ccc3c(ccc4sc5c(c43)NC[C@@H](C)N=C5N(C)C)n2)cn1`
## Result 0

## Task Proceed to COc1ccc(CNC(=O)NC2CCN(c3ccnc(Nc4ccc(F)cc4)n3)C2)cc1 (centres unmarked)
## Result 18

## Task Proceed to `Cc1c(Cn2c(C)nn3c(=O)cc(N4CCO[C@H](C)C4)nc23)cccc1C(F)(F)F`
## Result 0

## Task Proceed to `COc1cc(Nc2ccnc3ccc(C(F)(F)F)cc23)cc(OC)c1OC`
## Result 5

###

# Tested on: ACVR1
# Details: concentration: 1 μM, replicates: in singlicate; n = 1
Measured quantity: %Inh (%)
I only need the number, in %, no unit after it.

Compound structure string: CCC(=O)c1c(-c2ccccc2)c2cc(Cl)ccc2c(=O)n1Cc1cc(S(C)(=O)=O)n(CC(N)=O)n1
Data value: 0

## Task Endpoint output: %Inh of `COc1cc2ncn(-c3cc(OCc4ccncc4)c(C(N)=O)s3)c2cc1OC` . Value?
## Result 9

## Task Proceed to `COc1cc2ncn(-c3cc(OCc4ccncc4Br)c(C(N)=O)s3)c2cc1OC`
## Result 5

## Task Proceed to `CCc1nc(-c2cccc(C)c2)c(-c2ccncc2)s1`
## Result 3

###

Parameter %Inh: see the listing below.
# Test system: CDK7
# Details: concentration: 1 μM, replicates: in singlicate; n = 1
I only need the number, in %, no unit after it.

Use the examples below as a reference point.
Molecule: COc1cc2nccc(Nc3cccc(Oc4ccccc4)c3)c2cc1OC.Cl
Target entity: CDK7
Measured quantity: %Inh
Data value: 0
//
Molecule: COc1ccc(-c2cc3c(C)nc(N)nc3n([C@H]3CC[C@H](O)CC3)c2=O)cn1
Target entity: CDK7
Measured quantity: %Inh
Data value: 7
//
Molecule: O=C(NCc1cccs1)c1cc(C(=O)c2c(Cl)cccc2Cl)c[nH]1
Target entity: CDK7
Measured quantity: %Inh
Data value: 0
//
Molecule: Cc1cccc(-c2cc(-c3c[nH]nc3-c3ccccn3)ccn2)c1
Target entity: CDK7
Measured quantity: %Inh
Data value: 0
//
Molecule: COc1cc(OC)cc(-c2cc3cnc(N)nc3nc2NC(=O)NC(C)(C)C)c1
Target entity: CDK7
Measured quantity: %Inh
Data value: 31

## Task Endpoint output: %Inh of CCS(=O)c1ccc(-c2coc3ccc(-c4nnc(C)o4)cc23)cc1 (stereo not drawn) . Value?
## Result 20

## Task Proceed to `O=C(Nc1ccc2c(c1)OCO2)NC1CCN(c2ccnc(NCc3ccc(F)cc3)n2)CC1`
## Result 0

## Task Proceed to COc1ccc(CNC(=O)NC2CCN(c3ccnc(Nc4ccc(F)cc4)n3)C2)cc1 (stereo not drawn)
## Result 4

## Task Proceed to `COc1ccc(-c2cc3c(C)nc(N)nc3n([C@H]3CC[C@H](OCCO)CC3)c2=O)cn1`
## Result 14

## Task Proceed to `Nc1ncnc2c1ncn2-c1cccc2ccccc12`
## Result 22

###

# Test system: TNK1
# Details: concentration: 1 μM, replicates: in singlicate; n = 1
Parameter %Inh: see the listing below.
I only need the number, in %, no unit after it.

Compound: CCc1ccc(-c2ccc3c(c2)-c2nn(C)cc2S(=O)(=O)N3C)cc1
Measured quantity: %Inh
Data value: 14
//
Compound: COc1cc(Nc2nccc(N3CCC(NC(=O)C(C)c4ccc(Cl)cc4)C3)n2)cc(OC)c1OC (stereo not drawn)
Measured quantity: %Inh
Data value: 0
//
Compound: Fc1cccc(CSc2nnc(-c3ccc4c(c3)CCO4)o2)c1
Measured quantity: %Inh
Data value: 0
//
Compound: COc1cc(Nc2ccnc3ccc(C(F)(F)F)cc23)cc(OC)c1OC
Measured quantity: %Inh
Data value: 14

Next item in the queue.
## Task Endpoint output: %Inh of `COC(=O)c1c(-c2ccccc2)c2cc(Br)ccc2c(=O)n1Cc1ccc(NC(=O)CCC(=O)O)cc1` . Value?
## Result 17

###

# Test system: ACVR2B
# Details: concentration: 1 μM, replicates: in singlicate; n = 1
Parameter %Inh: see the listing below.
I only need the number, in %, no unit after it.

Use the examples below as a reference point.
Molecule: O=C(Nc1n[nH]c2cc(-c3ccccc3F)ccc12)C1CC1 [SB-733371]
%Inh / %: 48

Molecule: COC(=O)c1c(-c2ccccc2)c2cc(Br)ccc2c(=O)n1Cc1ccc(NC(=O)CCC(=O)O)cc1
%Inh / %: 0

Molecule: O=C1NC(=O)C(c2ccccc2)=C1Nc1cccc(O)c1 [SB-390534]
%Inh / %: 0

Molecule: OCCCNc1nccc(-c2c(-c3cccc(C(F)(F)F)c3)nn3cc(C(F)(F)F)ccc23)n1 [GW630813]
%Inh / %: 0

Molecule: C[C@@H]1CC[C@H](C(=O)NC2CCCCC2)CN1c1cc(-c2ccc3c(N)n[nH]c3c2)nc(N)n1 [GSK2291363]
%Inh / %: 0

## Task Give ACVR2B %Inh for COc1cc(Nc2ccnc3ccc(C(F)(F)F)cc23)cc(OC)c1OC [GW577382]
## Result 0

## Task Proceed to CN1C(=O)C(Nc2cc(Cl)c(O)c(Cl)c2)=C(c2ccc(Cl)cc2)C1=O [SB-404321]
## Result 0

## Task Proceed to COc1cccc(-n2cnc3c(N)ncnc32)c1 [SKF-97416]
## Result 0

## Task Proceed to `CCC(=O)c1c(-c2ccccc2)c2cc(Cl)ccc2c(=O)n1Cc1cc(S(C)(=O)=O)n(CC(F)F)n1`
## Result 0

## Task Proceed to COc1cc(Nc2nccc(N3CCC(NC(=O)C4COc5ccccc5O4)C3)n2)cc(OC)c1OC (stereo not shown) [GSK1379761]
## Result 13

###

# Tested on: IRAK4
# Details: concentration: 1 μM, replicates: in singlicate; n = 1
Measured quantity: %Inh (%)
I only need the number, in %, no unit after it.

Use the examples below as a reference point.
Compound: Nc1n[nH]c2ncc(-c3ccccc3)cc12
Data value: 22
--
Compound: COC(=O)c1c(-c2ccccc2)c2cc(Br)ccc2c(=O)n1Cc1ccc(NC(=O)CCC(=O)O)cc1
Data value: 16
--
Compound: Cn1c(=O)c(F)c(Nc2ccc(I)cc2F)c2c(=O)n(OC[C@H](O)CO)cnc21
Data value: 0
--
Compound: Cc1nnc(-c2ccc3ncn(-c4ccc(S(C)=O)cc4)c3c2)o1 (stereo not drawn)
Data value: 0
--
Compound: CN1C(=O)C(Nc2ccccc2)=C(c2ccccc2)C1=O
Data value: 0
--
Compound: CCC(=O)c1c(-c2ccccc2)c2cc(Cl)ccc2c(=O)n1Cc1cc(C(=O)NC2CC2)n(C)n1
Data value: 20
--
Compound: CCC(=O)c1c(-c2ccccc2)c2cc(Cl)ccc2c(=O)n1Cc1ccc(C(=O)O)cc1
Data value: 0
--
Compound: O=C(Nc1n[nH]c2cc(-c3ccccc3F)ccc12)C1CC1
Data value: 0

## Task Endpoint output: %Inh of `COc1cc2ncn(-c3cc(OCCCc4ccccc4)c(C(N)=O)s3)c2cc1OC` . Value?
## Result 0

## Task Proceed to `Cl.c1ccc(Cn2cnc3cc(Nc4ncnc5ccccc45)ccc32)cc1`
## Result 15

## Task Proceed to CCS(=O)c1ccc(-c2coc3ccc(-c4nnc(C)o4)cc23)cc1 (stereo not drawn)
## Result 9

## Task Proceed to `Cc1nn2c(=O)cc(N3CCOCC3)nc2n1Cc1cccc(Cl)c1Cl`
## Result 16

## Task Proceed to `COc1ccc(-c2coc3ccc(-c4nnc(SCc5cccc(C#N)c5)o4)cc23)cc1`
## Result 0

## Task Proceed to `COc1cc(Nc2ccnc3ccc(C(F)(F)F)cc23)cc(OC)c1OC`
## Result 2

## Task Proceed to `CCS(=O)(=O)c1ccc(OC)c(Nc2ncc(-c3ccc(F)cc3)o2)c1.Cl`
## Result 3
